The origin of these recorded values is patent US7678787B2.

Experimental Readout: melting point

Check out these entries, answers already filled in.
Molecule | Reported Result
O=C(NCc1cccnc1)c1ccc2n1Cc1ccccc1N(C(=O)c1ccc(-c3cccnc3)cc1)C2 [Example 108] | 120 to 125 °C
CC(=O)c1ccccc1-c1ccc(C(=O)N2Cc3ccc(C(=O)NCc4cccnc4)n3Cc3ccccc32)cc1C [Example 29] | 171 to 172 °C

For each entry beneath this line, provide reported melting point.
1. COc1ccccc1-c1ccc(C(=O)N2Cc3ccc(C(=O)NCc4cncc(Br)c4)n3Cc3ccccc32)cc1 [Example 6]
2. CS(=O)(=O)c1ccccc1-c1ccc(C(=O)N2Cc3ccc(C(=O)NCc4cccnc4)n3Cc3ccccc32)cc1 [Example 15]

OUTPUT:
180 to 184 °C
153 to 156 °C

For each entry beneath this line, provide reported melting point.
1. O=C(NCc1cccnc1)c1ccc2n1Cc1ccccc1N(C(=O)c1ccc(-n3cccn3)cc1)C2 [Example 112]
2. COc1cccc(-c2ccc(C(=O)N3Cc4ccc(C(=O)NCc5cccnc5)n4Cc4ccccc43)cc2C)c1 [Example 70]
3. O=C(NCc1cccnc1)c1ccc2n1Cc1ccccc1N(C(=O)c1ccc(-c3nccs3)cc1)C2 [Example 111]
4. O=C(NCc1cccnc1)c1ccc2n1Cc1ccccc1N(C(=O)Cc1ccc(-c3ccccc3)cc1)C2 [Example 143]
5. O=C(NCc1cccnc1)c1ccc2n1Cc1ccccc1N(C(=O)c1ccc3c(c1)Cc1ccccc1-3)C2 [Example 147]
6. CNCc1ccccc1-c1ccc(C(=O)N2Cc3ccc(C(=O)NCc4cccnc4)n3Cc3ccccc32)cc1 [Example 42]
7. NS(=O)(=O)c1cc(C(=O)N2Cc3ccc(C(=O)NCc4cccnc4)n3Cc3ccccc32)ccc1N1CCOCC1 (hydrate or solvate) [Example 114, HEMIHYDRATE]

OUTPUT:
1. 107 °C
2. 176 to 177 °C
3. 178 to 179 °C
4. 153 to 155 °C
5. 116 to 119 °C
6. 149 to 150 °C
7. 159 to 161 °C
